# Tested on: RAF1 (human)
# Assay remarks: radiometric filter-binding kinase assay, Kinase HotSpot
# Reported conditions: compound 0.5 µM; ATP 10 µM
Measure name: residual activity (%)
Give the value, in units of %, as a plain number.

Lookup: Suppose we examine the molecule CSc1nc(-c2ccc(F)cc2)c(-c2ccnc(NC(C)c3ccccc3)c2)[nH]1 (stereo not drawn) ; what residual activity value has been reported?
Found: 88.9

Lookup: Suppose we examine the molecule O=C1Nc2ccccc2/C1=C\c1c(Cl)[nH]c2ccccc12 ; what residual activity value has been reported?
Found: 89.9

Lookup: Suppose we examine the molecule COc1cc2ncnc(Nc3ccc(F)c(Cl)c3)c2cc1OCCCN1CCOCC1 ; what residual activity value has been reported?
Found: 90.9
